# measurement-notes: Half life in HIV-1 infected patient at 100 mg, po bid coadministered with 400 mg, po bid of Lopinavir and NRTI
# measurement-parameters: human, in vivo
assay-readout: half-life
Show the value, then the unit it is measured in.

Reported half-life ( CC(C)c1nc(CN(C)C(=O)N[C@H](C(=O)N[C@@H](Cc2ccccc2)C[C@H](O)[C@H](Cc2ccccc2)NC(=O)OCc2cncs2)C(C)C)cs1 ) = 4.03 h

====

# measurement-notes: Half life in HIV-1 infected patient at 300 mg, po qd coadministered with 100 mg of ritonavir, po qd and NRTI
# Assay type: ADME, organism-based
# measurement-parameters: human, in vivo
assay-readout: half-life (min)
Answer with a number only, understood to be in min.

Reported half-life ( COC(=O)N[C@H](C(=O)N[C@@H](Cc1ccccc1)[C@@H](O)CN(Cc1ccc(-c2ccccn2)cc1)NC(=O)[C@@H](NC(=O)OC)C(C)(C)C)C(C)(C)C ) = 433

Sourced from ChEMBL document CHEMBL1671853
